Cited source: ChEMBL document CHEMBL1201862

Tested on: A498
Test: NCI tumour cell line growth inhibition, 48 h
Activity calls are given as the source filed them. Rule as the data show it: active = GI50 up to about 1.1 µM and inactive = higher.
# GI50 per entry

[Q] Test system A498; read-out GI50; what value for O=C(O)c1c2c(cc3c(=O)cc(-c4ccccc4)oc13)CCCC2 ?
[A] > 100 µM (inactive)

[Q] Test system A498; read-out GI50; what value for CCOC(=O)C1=C(C)N(NC(N)=O)C(C)(O)C12CCOC2=O (stereo unspecified) ?
[A] > 100 µM (inactive)

[Q] Test system A498; read-out GI50; what value for Cc1cc(S(=O)(=O)NC2=NNC(C)CN2)c(S)cc1Cl (stereo unspecified) ?
[A] 21.6 µM (inactive)

[Q] Test system A498; read-out GI50; what value for CCOC(=O)C1=C(Nc2ccc(Cl)cc2Cl)OC/C1=N\NS(=O)(=O)c1ccc(C)cc1 ?
[A] > 100 µM (inactive)

[Q] Test system A498; read-out GI50; what value for COc1ccccc1NC(=O)C(=O)C(c1cnc2ccc([N+](=O)[O-])cc2n1)[N+](=O)[O-] (stereo unspecified) ?
[A] > 100 µM (inactive)

[Q] Test system A498; read-out GI50; what value for O=C(NCCCNCCN1C(=O)c2cccc3cc([N+](=O)[O-])cc(c23)C1=O)c1cc(-c2ccccc2)nc2ccccc12 ?
[A] 4.2 µM (inactive)
